# subject.of.test: HIV-1 Env of isolate 92UG114 (subtype D) (HIV-1)
# measurement.protocol: cell-based or functional assay
value.type: IC50 (neutralization) (µg/mL)

>>> measurement("PGT-128 (antibody, V domains shown) VH: QPQLQESGPTLVEASETLSLTCAVSGDSTAACNSFWGWVRQPPGKGLEWVGSLSHCASYWNRGWTYHNPSLKSRLTLALDTPKNLVFLKLNSVTAADTATYYCARFGGEVLRYTDWPKPAWVDLWGRGTLVTVSS VL: QSALTQPPSASGSPGQSITISCTGTSNNFVSWYQQHAGKAPKLVIYDVNKRPSGVPDRFSGSKSGNTASLTVSGLQTDDEAVYYCGSLVGNWDVIFGGGTKLTVL")
0.083
